# System: dengue virus
# procedure.details: Western blot analysis of viral protein levels in dengue virus-infected cells
# Type: cell-based
# reported.conditions: 10 uM; SNB-19 human glioblastoma cells; compound 1 hour prior to infection, 24 hours infection; Western blot of viral protein
metric.name: Anti-DENV Activity at 10 uM (SNB-19 cells)

// solved cases for Anti-DENV Activity at 10 uM (SNB-19 cells) follow
compound	reported.value
CCOC(=O)c1ccc(N2C(=O)c3[nH]nc(-c4ccc(OC)cc4)c3C2c2ccc(C)cc2)cc1 (centres unmarked)	Yes
CCOc1ccc(N2C(=O)c3[nH]nc(-c4cccs4)c3C2c2cccc(F)c2)cc1 (centres unmarked)	No
CC1=Nc2cc(C(=O)NCc3ccccc3Cl)ccc2Sc2c(C)ccc(C)c21	No
CC(C)(C)c1ccc(C(=O)Nc2ccc3c(c2)CCCN3C(=O)c2cccs2)cc1	No
COC(=O)c1cc2occc2n1Cc1nc(-c2ccc(C)cc2)oc1C	No

q: Need Anti-DENV Activity at 10 uM (SNB-19 cells) of O=C(Nc1cccnc1)c1cccs1 [NCGC00072088-02, N-(pyridin-3-yl)thiophene-2-carboxamide] , thanks.
a: Yes

q: Need Anti-DENV Activity at 10 uM (SNB-19 cells) of `CCCOc1ccc2nc(NC(=O)OC)[nH]c2c1` , thanks.
a: No

---

# Test system: dengue virus
# procedure.details: Western blot analysis of viral protein levels in dengue virus-infected cells
# Type: cell-based
# reported.conditions: 10 uM; SNB-19 human glioblastoma cells; compound 1 hour prior to infection, 24 hours infection; Western blot of viral protein
metric.name: Anti-DENV Activity at 10 uM (SNB-19 cells)

// solved cases for Anti-DENV Activity at 10 uM (SNB-19 cells) follow
molecule	assayed.target	reported.value
COc1cc(C2CC(=O)Nc3cc4c(cc32)OCCO4)cc(Br)c1OC (stereo not shown) [NCGC00107055-01]	dengue virus	No
O=c1[nH]c(=O)n(C2C[C@@H](O)[C@@H](CO)O2)cc1F (stereo partly shown) [NCGC00263862-02]	dengue virus	No
COCCn1c(=O)[nH]c2cc(C(=O)NCc3ccccc3Cl)ccc2c1=O [NCGC00104879-01]	dengue virus	No
CCOC(=O)c1ccc(N2C(=O)c3[nH]nc(-c4ccco4)c3C2c2ccc(C)cc2)cc1 (stereo not shown) [NCGC00108581-01]	dengue virus	Yes
COc1cc2c(c(OC)c1OC)-c1ccc(OC)c(=O)cc1[C@@H](NC(C)=O)CC2 [NCGC00025125-18]	dengue virus	No
O=c1nc[nH]c2c1ccn2C1OC(CO)C(O)C1O (stereo not shown) [NCGC00246910-02]	dengue virus	Yes

Consider now this further molecule.
q: Need Anti-DENV Activity at 10 uM (SNB-19 cells) of CC[C@H](C)[C@@H]([C@@H](CC(=O)N1CCC[C@H]1[C@H](OC)[C@@H](C)C(=O)N[C@@H](Cc1ccccc1)c1nccs1)OC)N(C)C(=O)[C@@H](NC(=O)[C@H](C(C)C)N(C)C)C(C)C [NCGC00378623-01] , thanks.
a: No
